Each entry below lists one item and its recorded apparent KD of MS2 coat protein value.
# System: MS2 coat protein
# Assay comment: apparent KD of MS2 coat protein; designed switch direction (-1 OFF switch, 1 ON switch): -1; higher = weaker reporter binding
# Experimental setup: Eterna round: R95; input ligand: microRNA oligo, concentration not stated
Quantity: apparent KD of MS2 coat protein (µM)

INSERT INTO measurements (sequence_entry, quantity, quantitative_result) VALUES
  ('AGUACUAACACGAAAGUGUUAGUACAAUAAGCUUGUGAAACAUGAGGAUCACCCAUGUCCUCAUAGGCUCGUCUUAU [salish99_TOv2_r3_054] (puzzle: Sensor v3, turn-off variant 2)', 'apparent KD of MS2 coat protein', 0.607),
  ('AGAUGGCGAGGAUAUACAUGAGGAUCACCCAUGUGAGAAGAAAGAGUGAGGAAGAAAAGUAGAAGGCGCUGUCA [Mat - Exclusion 3 - Mod of Salish D19] (puzzle: Exclusion 3)', 'apparent KD of MS2 coat protein', 0.0954),
  ('GCGAAAGCAAGCAAGUGAAACAUGAGGAUCACCCAUGUCCUCAUUUGCUCGUCUUGUAAGCUAUGCGAAAGCAUAGC [Sensor 3, v1 - 5] (puzzle: Sensor v3, turn-off variant 1)', 'apparent KD of MS2 coat protein', 0.0533),
  ('UUAUUGCAAGCAAGAUCCCACAUGAGGAUCACCCAUGUGCUCGUCUUAUAAGGUACUGUGACGAAAGUCACGGUACC [Sensor 3, v1 - 99] (puzzle: Sensor v3, turn-off variant 1)', 'apparent KD of MS2 coat protein', 0.462),
  ('CAGUACUGAGGAUAUACAUGAGGAUCACCCAUGUGCUCGAAGUAGGAUACUACUAUUAGUAGAAGGCAGUACUG [Fiskers Ex 3 828 mod 22] (puzzle: Exclusion 3)', 'apparent KD of MS2 coat protein', 0.0159),
  ('CGCGACUCAGGAUAUACAUGAGGAUCACCCAUGUGGAACUACUGGGUCGAUAAAAGGUGUAGAAGGGAGGAAAU [Veveesla] (puzzle: Exclusion 3)', 'apparent KD of MS2 coat protein', 0.0105),
  ('AUUUUAAUAUAGGAUAUCGAAUUUAUUAUUUAACGAGAAGGAUGAACAUGAGGAUCACCCAUGUGGUAUCAUGG [JL-ex6-3.03] (puzzle: Exclusion 6)', 'apparent KD of MS2 coat protein', 0.263),
  ('UCAAGUAUGUAGGAUAUCGAUGUCUGCGGACAUCGAGAAGGACGUACAUGAGGAUCACCCAUGUAACUUGCAUG [Exclusion 6 - B - 10:c] (puzzle: Exclusion 6)', 'apparent KD of MS2 coat protein', 0.0709),
  ('ACAAGCUUUUUGUUCGUCUUAUAAUAAUAAAUAAAGAUAACAUGAGGAUCACCCAUGUAACAAAGACGGCCUCAUGU [Sesor Array 19 - Jieux - Sensor v3, turn-off variant 2] (puzzle: Sensor v3, turn-off variant 2)', 'apparent KD of MS2 coat protein', 0.0117),
  ('UCGAGGUCAGGAUAUACAUGAGGAUCACCCAUGUGGAAGUAAGGUAGGAGAAGAGUAGGUAGAAGGGACGAGAG [JR_Exclu3_Sub050] (puzzle: Exclusion 3)', 'apparent KD of MS2 coat protein', 0.0308);
